target: UniProtKB A0A5G2R0F5
Sequence (A0A5G2R0F5 1-362): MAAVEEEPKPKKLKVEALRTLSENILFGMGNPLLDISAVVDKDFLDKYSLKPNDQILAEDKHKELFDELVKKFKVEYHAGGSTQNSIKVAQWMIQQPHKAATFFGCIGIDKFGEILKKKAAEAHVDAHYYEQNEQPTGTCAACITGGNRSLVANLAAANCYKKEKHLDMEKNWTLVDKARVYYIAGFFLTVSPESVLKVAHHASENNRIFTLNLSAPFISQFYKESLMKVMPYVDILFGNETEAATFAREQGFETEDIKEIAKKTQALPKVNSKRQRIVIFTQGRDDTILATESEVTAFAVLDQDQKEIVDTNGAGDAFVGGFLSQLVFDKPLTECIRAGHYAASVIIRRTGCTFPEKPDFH
protocol.text: Inhibition of adenosine kinase activity
Type: biochemical

>  <structure>
NC[C@H]1O[C@@H](n2nc(Br)c3c(N)ncnc32)[C@H](O)[C@@H]1O

>  <IC50>
< 10 nM

$$$$
